tested on: A549/ATCC NSCLC; assay: NCI-60 one-dose screen, 48 h (100 = growth as untreated, 0 = no growth, -100 = all killed); conditions: 10 µM unless noted
This is part of a sample that, as a whole, favours compounds with a hit. Of some 83,000 tested, about 20% had one in any assay. Calls of active or inactive are those of the source. The calls were made as follows: active = growth percent below 10; inactive = the rest.
Each record here notes measured growth.

| Smiles notation | growth |
| --- | --- |
| C=C1C(=O)O[C@H]2[C@H]1CC/C(COC(=O)N[C@H]1C[C@H](O[C@H]3C[C@](O)(C(=O)CO)Cc4c(O)c5c(c(O)c43)C(=O)c3c(OC)cccc3C5=O)O[C@@H](C)[C@H]1O)=C\CC[C@@]1(C)O[C@@H]21 | 77.2% (inactive) |
| O=C1/C(=C/c2ccc(F)cc2)COc2ccc(O)cc21 | 92.5% (inactive) |
| CN([O-])c1nc(N(C)[O-])nc(N2CCOCC2)n1.CN([O-])c1nc(N(C)[OH2+])nc(N2CCOCC2)n1.[Fe+3] | 72.7% [100 µM] (inactive) |
| CN[C@]12CC3(C=CC(=O)C=C3)O[C@@]1(Cc1ccc(OC)cc1)N(C)C(=O)N2 | 79.7% (inactive) |
| CCCCCCCCn1ccc2cc(NC(=O)CN3CCN(c4nc(C)cc(Cl)n4)CC3)ccc21 | 96.3% (inactive) |
| CC(C)n1cnc2c(=S)nc[nH]c21 | 126% (inactive) |
| O=C(CN1C(=O)CCC1=O)Nc1ncc(Cc2ccc(F)cc2)s1 | 108% (inactive) |
| O=C1NCCC12CCN(c1c(Cl)cncc1-c1ccc(O)cc1)CC2 | 94.6% (inactive) |
| CC(C)(C)n1cc(-c2ccnc(NCCNS(=O)(=O)c3cccc4ccccc34)c2)c(-c2cccc(F)c2)n1 | 16.3% (inactive) |
| CSc1nc2sc3c(c2c(=O)n1-c1ccc([N+](=O)[O-])cc1)CCCCC3 | 81.1% (inactive) |
| C#Cc1cccc(Nc2ncnc3ccc(-c4cnc(N)nc4)cc23)c1 | 35.9% (inactive) |
| CCN(CC)c1ccc(/C=C/C(=O)c2ccc(Nc3nc(Nc4ccccc4)nc(Nc4ccccc4)n3)cc2)cc1 | 37.6% (inactive) |
| O=[N+]([O-])c1ccc(S(=O)(=O)N2CCN(C3=NS(=O)(=O)c4ccccc4N3c3ccccc3)CC2)cc1 | 96.3% (inactive) |
| O=C1Nc2ccccc2/C1=C\c1nc(-c2ccccc2F)n2ccccc12 | 26.5% (inactive) |
| Cc1ccc(-c2cc(-c3ccc(Cl)cc3)nc(NC(=O)c3cccnc3)n2)cc1 | 105% (inactive) |
| CN(C)c1ccc(Nc2cc(-c3cccc(OC(F)(F)F)c3)nc3ccc(N4CCCC4)cc23)cc1 | -32.8% (active) |
| CCCCCCCCn1ccc2cc(NC(=O)Cn3cc(CN4CCCCC4)nn3)ccc21 | 25.2% (inactive) |
| Oc1c(Cl)cc(Cl)c2ccc(Cn3cc(-c4cc(C(F)(F)F)cc(C(F)(F)F)c4)nn3)nc12 | 95.5% (inactive) |
